# Subject Of Test: Sphingosine 1-phosphate receptor 1 (Homo sapiens, UniProt P21453)
# Sequence (P21453 whole entry): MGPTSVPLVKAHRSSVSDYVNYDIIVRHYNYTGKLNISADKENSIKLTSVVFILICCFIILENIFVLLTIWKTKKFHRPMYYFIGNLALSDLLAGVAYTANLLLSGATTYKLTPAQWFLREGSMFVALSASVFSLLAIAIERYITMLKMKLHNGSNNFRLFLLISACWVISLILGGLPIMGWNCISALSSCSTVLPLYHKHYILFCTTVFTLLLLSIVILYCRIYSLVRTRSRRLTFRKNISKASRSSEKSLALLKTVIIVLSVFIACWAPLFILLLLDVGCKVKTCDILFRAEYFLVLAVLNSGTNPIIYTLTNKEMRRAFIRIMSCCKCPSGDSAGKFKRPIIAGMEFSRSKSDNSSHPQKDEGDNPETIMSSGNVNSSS
# Assay Details: S1P Assay: Selected Compounds of the Examples were evaluated at Millipore Corporation, USA, using S1P1 receptor; [35S]-GTPgamaS binding assay. A [35S]-GTPgamaS binding assay at Millipore was conducted by GPCR Profiler¿ Custom Service Laboratory, Temecula, Calif., Millipore, Inc. to monitor dose-dependent agonist selectivity for selected Examples against the S1P1 receptors. The assay was completed with sample compounds subjected to an eight-point, four-fold dose response curve with starting concentration of 10 μM. Selectivity was determined upon initial addition of compounds followed by a 30 minute incubation at 30° C. Following compound incubation, bounded [35S]-GTPgamaS was determined by filtration and scintillation counting. Independently, selected compounds were evaluated for S1P1 and S1P3 agonistic activity. The S1P1 assay system was GTPgama-S35 binding in membranes from CHO K1 cells, expressing S1P1 human receptor. The S1P3 assay system was calcium mobilization in CHO K1 cells expressing S1P3 human receptor. There was no significant background response to S1P in the CHO K1 cells with either assay. Compounds were tested initially at a concentration of 10 μM.
# Format: cell membranes
Entries whose EC50 is below 500 nM take true (1); entries at or above 500 nM take false (0).

EC50 under 500 nM? Item: CCOc1ccc(-c2nc(-c3ccc4oc(C(N)(CO)CO)cc4c3)no2)cc1OCC
true (1)

Dear reviewer, please state whether CCCCCCCCc1ccc(NC(=O)NCCC(=O)O)cc1 has EC50 strictly beneath 500 nM.
true (1)

Decide: EC50 of CC(C)N(Cc1ccc(-c2ccc(CN3CC(C(=O)O)C3)cc2)cc1)c1ccc(F)cc1 strictly below 500 nM?
false (0)

For this compound, is EC50 lower than 500 nM? Cc1ccc(/C=C/c2nc(-c3ccc4oc(C(N)(CO)CO)cc4c3)no2)cc1
false (0)

Does COc1ccc(COc2ccc(CN3CC(C(=O)O)C3)cc2)cc1C12CC3CC(CC(C3)C1)C2 have EC50 strictly under 500 nM?
true (1)

* * *

# Subject Of Test: Sphingosine 1-phosphate receptor 3 (Homo sapiens)
# Sequence (Q99500 whole entry): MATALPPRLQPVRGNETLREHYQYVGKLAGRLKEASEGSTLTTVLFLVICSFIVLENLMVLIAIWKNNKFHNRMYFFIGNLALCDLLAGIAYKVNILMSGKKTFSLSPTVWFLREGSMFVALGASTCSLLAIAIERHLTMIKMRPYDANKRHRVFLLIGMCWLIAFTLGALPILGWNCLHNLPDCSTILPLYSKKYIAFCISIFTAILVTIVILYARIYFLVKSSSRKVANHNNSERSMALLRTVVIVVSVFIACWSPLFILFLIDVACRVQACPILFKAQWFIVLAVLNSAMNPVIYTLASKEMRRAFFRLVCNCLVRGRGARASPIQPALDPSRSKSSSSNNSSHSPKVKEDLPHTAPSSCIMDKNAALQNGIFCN
# Assay Details: S1P Assay: Selected Compounds of the Examples were evaluated at Millipore Corporation, USA, using S1P1 receptor; [35S]-GTPgamaS binding assay. A [35S]-GTPgamaS binding assay at Millipore was conducted by GPCR Profiler¿ Custom Service Laboratory, Temecula, Calif., Millipore, Inc. to monitor dose-dependent agonist selectivity for selected Examples against the S1P1 receptors. The assay was completed with sample compounds subjected to an eight-point, four-fold dose response curve with starting concentration of 10 μM. Selectivity was determined upon initial addition of compounds followed by a 30 minute incubation at 30° C. Following compound incubation, bounded [35S]-GTPgamaS was determined by filtration and scintillation counting. Independently, selected compounds were evaluated for S1P1 and S1P3 agonistic activity. The S1P1 assay system was GTPgama-S35 binding in membranes from CHO K1 cells, expressing S1P1 human receptor. The S1P3 assay system was calcium mobilization in CHO K1 cells expressing S1P3 human receptor. There was no significant background response to S1P in the CHO K1 cells with either assay. Compounds were tested initially at a concentration of 10 μM.
Recorded Metric: pEC50
Scale: negative log10 of molar concentration, which is what pEC50 denotes.

Which pEC50 is listed for CCOc1ccc(-c2nc(-c3ccc4oc(C(N)(CO)CO)cc4c3)no2)cc1OCC ?
6.42
